Hey, just so you know, these numbers are from patent US20190374526A1.

target: hPRDM9 (amino acids 195-385) (Homo sapiens, UniProt Q9NQV7)
Sequence (Q9NQV7 195-385): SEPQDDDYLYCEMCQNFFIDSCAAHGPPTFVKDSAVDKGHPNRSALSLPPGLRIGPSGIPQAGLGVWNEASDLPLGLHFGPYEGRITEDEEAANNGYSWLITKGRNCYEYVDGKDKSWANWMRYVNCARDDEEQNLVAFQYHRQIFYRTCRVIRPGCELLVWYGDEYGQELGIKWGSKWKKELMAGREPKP
pIC50: −log10 of the molar value.
The threshold is inclusive: pIC50 of exactly 6 counts as true (1); values below receive false (0).

{"columns": ["molecule", "measurement target", "label value"],
 "data": [
  ["COc1cc(Cl)cc(-c2nc(N3CCCC4(CCN(c5ccnc(C)c5)CC4)C3)no2)c1 [Compound 86]", "hPRDM9 (amino acids 195-385) (Homo sapiens, UniProt Q9NQV7)", "true (1)"],
  ["COC(=O)c1cccc(-c2cc(N3CCCC4(CN(c5ccnc(C)c5)C4)C3)[nH]n2)c1 [Compound 130]", "hPRDM9 (amino acids 195-385) (Homo sapiens, UniProt Q9NQV7)", "false (0)"],
  ["Cc1cc(N2CCC3(CCN(c4nc(-c5cc(Cl)cc(Cl)c5)no4)C3)C2)ccn1 (centres unmarked) [Compound 4]", "hPRDM9 (amino acids 195-385) (Homo sapiens, UniProt Q9NQV7)", "true (1)"],
  ["Cc1cc(N2CC3(CCCN(c4nc(-c5ccc(Cl)cc5)no4)C3)C2)ccn1 [Compound 144]", "hPRDM9 (amino acids 195-385) (Homo sapiens, UniProt Q9NQV7)", "false (0)"],
  ["CCC1(CNc2ccnc(C)c2)CCN(c2nc(-c3cc(Cl)cc(Cl)c3)no2)C1 (centres unmarked) [Compound 23]", "hPRDM9 (amino acids 195-385) (Homo sapiens, UniProt Q9NQV7)", "false (0)"],
  ["Cc1cc(N2CCC(CNc3nc(-c4cc(Cl)cc(Cl)c4)no3)CC2)ccn1 [Compound 233]", "hPRDM9 (amino acids 195-385) (Homo sapiens, UniProt Q9NQV7)", "false (0)"],
  ["Cc1cc(N2CCCC3(CCN3c3nc(-c4cc(Cl)cc(Cl)c4)no3)C2)ccn1 (centres unmarked) [Compound 231]", "hPRDM9 (amino acids 195-385) (Homo sapiens, UniProt Q9NQV7)", "false (0)"],
  ["COc1cccc(-c2noc(N3CCCC4(CN(c5ccnc(C)c5)C4)C3)n2)c1 [Compound 142]", "hPRDM9 (amino acids 195-385) (Homo sapiens, UniProt Q9NQV7)", "true (1)"]
]}
